So I've got a bunch of compounds here, and I need their pIC50 values.
- TEST_TARGET: Recombinant human integrin αvβ3 (Homo sapiens (Human), UniProt P05106+P06756)
- Sequence (P06756 31-992): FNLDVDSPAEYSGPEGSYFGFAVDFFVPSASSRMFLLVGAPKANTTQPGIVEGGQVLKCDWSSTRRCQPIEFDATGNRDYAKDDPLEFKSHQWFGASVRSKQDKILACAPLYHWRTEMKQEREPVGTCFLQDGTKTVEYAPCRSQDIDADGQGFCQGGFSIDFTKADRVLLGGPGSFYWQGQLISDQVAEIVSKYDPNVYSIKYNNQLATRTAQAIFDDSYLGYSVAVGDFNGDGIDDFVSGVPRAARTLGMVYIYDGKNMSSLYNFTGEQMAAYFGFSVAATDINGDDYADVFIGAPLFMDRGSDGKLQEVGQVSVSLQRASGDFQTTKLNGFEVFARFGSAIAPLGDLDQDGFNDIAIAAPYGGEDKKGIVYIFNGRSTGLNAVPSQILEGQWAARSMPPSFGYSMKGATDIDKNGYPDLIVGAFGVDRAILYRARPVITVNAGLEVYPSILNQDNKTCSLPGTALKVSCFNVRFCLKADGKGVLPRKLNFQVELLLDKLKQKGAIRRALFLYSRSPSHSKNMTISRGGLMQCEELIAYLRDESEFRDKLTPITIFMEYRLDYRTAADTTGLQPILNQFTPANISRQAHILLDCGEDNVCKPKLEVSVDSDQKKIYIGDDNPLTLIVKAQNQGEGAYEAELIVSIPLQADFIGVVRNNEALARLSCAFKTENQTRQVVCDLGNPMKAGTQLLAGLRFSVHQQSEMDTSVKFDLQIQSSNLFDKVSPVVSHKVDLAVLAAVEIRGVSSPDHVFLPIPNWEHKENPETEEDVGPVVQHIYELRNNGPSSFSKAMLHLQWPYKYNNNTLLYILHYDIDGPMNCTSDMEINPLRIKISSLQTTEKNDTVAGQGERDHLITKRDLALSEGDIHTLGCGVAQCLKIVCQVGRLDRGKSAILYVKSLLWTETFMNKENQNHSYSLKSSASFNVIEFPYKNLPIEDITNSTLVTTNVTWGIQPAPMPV
- Sequence (P05106 27-718): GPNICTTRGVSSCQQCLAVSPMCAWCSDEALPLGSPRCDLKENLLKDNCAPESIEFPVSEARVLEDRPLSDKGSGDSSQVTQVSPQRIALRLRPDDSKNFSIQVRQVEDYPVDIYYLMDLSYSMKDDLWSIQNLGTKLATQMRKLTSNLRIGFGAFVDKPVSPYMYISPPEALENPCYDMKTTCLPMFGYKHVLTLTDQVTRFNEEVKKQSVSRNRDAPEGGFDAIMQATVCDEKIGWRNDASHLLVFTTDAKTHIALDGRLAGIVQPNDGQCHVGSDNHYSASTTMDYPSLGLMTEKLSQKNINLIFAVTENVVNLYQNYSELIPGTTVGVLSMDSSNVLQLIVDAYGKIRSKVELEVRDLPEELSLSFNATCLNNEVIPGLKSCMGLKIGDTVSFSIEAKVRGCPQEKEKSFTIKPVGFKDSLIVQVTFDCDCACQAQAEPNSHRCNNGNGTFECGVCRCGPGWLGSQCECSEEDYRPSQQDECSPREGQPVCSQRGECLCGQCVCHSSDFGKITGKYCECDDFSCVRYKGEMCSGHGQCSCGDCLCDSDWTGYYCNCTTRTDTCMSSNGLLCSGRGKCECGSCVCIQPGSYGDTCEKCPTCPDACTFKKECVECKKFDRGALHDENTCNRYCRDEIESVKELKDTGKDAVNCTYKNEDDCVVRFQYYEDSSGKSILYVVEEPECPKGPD
- ASSAY_DETAILS: Solid Phase Receptor Assay (SPRA) for αvβ3 function
- MEASUREMENT_SETUP: vitronectin-coated plate
Hey, just a heads up that pIC50 is the negative log base 10 of the concentration in molar.

Lookup: Query: pIC50; subject: O=C(O)C[C@H](NC(=O)CNC(=O)c1cc(O)cc(NC2=NCC(O)CN2)c1)c1cc(Cl)cc(Br)c1O (stereo partly drawn) [Example C1, reference compound]
Found: 8.30

Lookup: Query: pIC50; subject: Cc1cc(Cl)cc([C@@H](CC(=O)O)NC(=O)CNC(=O)c2cccc(NC3=NCCN3)c2)c1O [Example C11, reference compound]
Found: 8.05

Lookup: Query: pIC50; subject: O=C(O)CC(NC(=O)CNC(=O)c1cc(O)cc(NC2=NCC(O)CN2)c1)c1cc(Cl)cc(Cl)c1O (stereo not drawn) [Example C3, reference compound]
Found: 8.70

----------
- TEST_TARGET: Recombinant human integrin α5β1 (Homo sapiens (Human), UniProt P05556+P08648)
- Sequence (P08648 42-995): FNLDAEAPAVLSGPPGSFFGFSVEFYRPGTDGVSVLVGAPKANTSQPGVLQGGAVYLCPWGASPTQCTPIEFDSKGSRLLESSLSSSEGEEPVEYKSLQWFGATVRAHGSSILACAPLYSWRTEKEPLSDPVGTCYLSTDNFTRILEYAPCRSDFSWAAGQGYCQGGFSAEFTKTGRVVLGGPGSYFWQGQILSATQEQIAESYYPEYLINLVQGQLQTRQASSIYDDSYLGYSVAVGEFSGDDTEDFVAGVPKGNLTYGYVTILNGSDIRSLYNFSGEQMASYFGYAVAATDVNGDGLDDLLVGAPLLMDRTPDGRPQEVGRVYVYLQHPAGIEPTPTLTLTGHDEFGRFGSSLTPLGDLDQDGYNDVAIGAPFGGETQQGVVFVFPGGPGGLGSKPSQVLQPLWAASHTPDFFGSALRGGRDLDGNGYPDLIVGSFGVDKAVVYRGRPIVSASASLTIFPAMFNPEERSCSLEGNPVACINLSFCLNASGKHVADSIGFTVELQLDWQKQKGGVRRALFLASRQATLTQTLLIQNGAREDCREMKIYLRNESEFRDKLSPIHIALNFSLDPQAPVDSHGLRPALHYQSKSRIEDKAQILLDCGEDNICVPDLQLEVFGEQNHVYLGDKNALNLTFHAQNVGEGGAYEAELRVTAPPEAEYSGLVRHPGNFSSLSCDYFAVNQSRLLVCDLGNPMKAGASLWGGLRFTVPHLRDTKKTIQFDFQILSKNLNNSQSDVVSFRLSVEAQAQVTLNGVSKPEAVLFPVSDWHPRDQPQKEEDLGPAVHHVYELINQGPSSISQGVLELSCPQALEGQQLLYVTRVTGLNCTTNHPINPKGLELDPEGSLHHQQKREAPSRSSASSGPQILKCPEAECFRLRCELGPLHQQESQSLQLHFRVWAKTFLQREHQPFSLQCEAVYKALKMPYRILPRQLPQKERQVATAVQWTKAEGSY
- Sequence (P05556 21-728): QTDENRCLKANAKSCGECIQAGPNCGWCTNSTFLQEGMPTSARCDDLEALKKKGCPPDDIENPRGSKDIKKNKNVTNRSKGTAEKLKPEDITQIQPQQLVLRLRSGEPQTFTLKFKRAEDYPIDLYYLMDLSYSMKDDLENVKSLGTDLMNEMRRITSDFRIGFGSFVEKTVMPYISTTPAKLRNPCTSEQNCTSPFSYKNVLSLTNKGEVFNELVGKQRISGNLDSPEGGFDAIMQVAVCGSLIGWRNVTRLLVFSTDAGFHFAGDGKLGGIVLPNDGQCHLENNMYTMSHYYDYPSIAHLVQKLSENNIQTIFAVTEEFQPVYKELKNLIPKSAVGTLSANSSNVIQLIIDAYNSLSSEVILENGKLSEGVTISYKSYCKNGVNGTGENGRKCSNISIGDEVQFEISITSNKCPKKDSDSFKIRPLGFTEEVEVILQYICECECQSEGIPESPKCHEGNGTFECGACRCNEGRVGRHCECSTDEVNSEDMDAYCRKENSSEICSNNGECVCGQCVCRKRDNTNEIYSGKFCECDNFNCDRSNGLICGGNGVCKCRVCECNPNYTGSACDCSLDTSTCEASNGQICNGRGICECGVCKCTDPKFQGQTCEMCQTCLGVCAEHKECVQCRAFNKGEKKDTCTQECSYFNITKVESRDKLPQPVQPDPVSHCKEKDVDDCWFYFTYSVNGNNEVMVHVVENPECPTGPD
- ASSAY_DETAILS: Solid Phase Receptor Assay (SPRA) for α5β1 function
- MEASUREMENT_SETUP: fibronectin-coated plate
In this scheme, each record receives a class according to its IC50; the ranges are lower segment: < 0.8 nM; middle segment: ≥ 0.8 nM and < 7 nM; upper segment: ≥ 7 nM

Lookup: Which IC50 band matches Cc1ccc(O)c(C(CC(=O)O)NC(=O)CNC(=O)c2cccc(NC(=N)N)c2)c1 (stereo not shown) [Example C8, reference compound] ?
Found: upper segment

Lookup: Which IC50 band matches Cc1cc(Cl)cc([C@@H](CC(=O)O)NC(=O)CNC(=O)c2cc(O)cc(NC3=NCC(O)CN3)c2)c1O (stereo partly shown) [Example C10, reference compound] ?
Found: upper segment

Lookup: Which IC50 band matches O=C(O)C[C@H](NC(=O)CNC(=O)c1cncc(NC2=NCC(O)CN2)c1)c1cc(Cl)cc(Br)c1 (stereo partly shown) ?
Found: lower segment

Lookup: Which IC50 band matches O=C(O)CC(NC(=O)CNC(=O)c1cc(O)cc(NC2=NCC(O)CN2)c1)c1cc(Cl)cc(Cl)c1O (stereo not shown) [Example C3, reference compound] ?
Found: upper segment

Lookup: Which IC50 band matches Cc1cc(Cl)cc([C@H](CC(=O)O)NC(=O)CNC(=O)c2cc(O)cc(NC3=NCC(O)CN3)c2)c1 (stereo partly shown) ?
Found: middle segment

Lookup: Which IC50 band matches O=C(O)C[C@H](NC(=O)CNC(=O)c1cc(O)cc(NC2=NCC(O)CN2)c1)c1cc(C(F)(F)F)cc(C(F)(F)F)c1 (stereo partly shown) ?
Found: middle segment

Lookup: Which IC50 band matches N=C(N)Nc1cccc(C(=O)NCC(=O)NC(CC(=O)O)c2ccccc2)c1 (stereo not shown) [Example C5, reference compound] ?
Found: upper segment

Lookup: Which IC50 band matches O=C(O)C[C@H](NC(=O)CNC(=O)c1cncc(NC2=NCC(O)CN2)c1)c1cc(Br)cc(C(F)(F)F)c1 (stereo partly shown) ?
Found: lower segment

Lookup: Which IC50 band matches O=C(O)C[C@H](NC(=O)CNC(=O)c1cc(O)cc(NC2=NCC(O)CN2)c1)c1cc(F)cc(Br)c1 (stereo partly shown) ?
Found: lower segment

Lookup: Which IC50 band matches O=C(O)C[C@H](NC(=O)CNC(=O)c1cc(O)cc(NC2=NCC(O)CN2)c1)c1cc(Cl)cc(Br)c1O (stereo partly shown) [Example C1, reference compound] ?
Found: upper segment

Lookup: Which IC50 band matches N=C(N)Nc1cccc(C(=O)NCC(=O)NC(CC(=O)O)c2cc(F)cc(C(F)(F)F)c2)c1 (stereo not shown) [Example C9, reference compound] ?
Found: upper segment

Lookup: Which IC50 band matches O=C(O)C[C@H](NC(=O)CNC(=O)c1cc(O)cc(NC2=NCC(O)CN2)c1)c1cc(Cl)cc(C(F)F)c1 (stereo partly shown) ?
Found: lower segment

Lookup: Which IC50 band matches O=C(O)C[C@H](NC(=O)CNC(=O)c1cc(O)cc(NC2=NCC(O)CN2)c1)c1ccccc1 (stereo partly shown) [Example C2, reference compound] ?
Found: upper segment

Lookup: Which IC50 band matches O=C(O)C[C@H](NC(=O)CNC(=O)c1cc(O)cc(NC2=NCC(O)CN2)c1)c1cc(Br)cc(C(F)F)c1 (stereo partly shown) ?
Found: lower segment

Lookup: Which IC50 band matches O=C(O)C[C@H](NC(=O)CNC(=O)c1cc(O)cc(NC2=NCC(O)CN2)c1)c1cc(Cl)cc(Br)c1 (stereo partly shown) ?
Found: lower segment

Lookup: Which IC50 band matches O=C(O)C[C@H](NC(=O)CNC(=O)c1cc(O)cc(NC2=NCC(O)CN2)c1)c1cc(Br)cc(OC(F)(F)F)c1 (stereo partly shown) ?
Found: middle segment

Lookup: Which IC50 band matches O=C(O)C[C@H](NC(=O)CNC(=O)c1cncc(NC2=NCC(O)CN2)c1)c1cc(Br)cc(Br)c1 (stereo partly shown) ?
Found: lower segment

Lookup: Which IC50 band matches O=C(O)C[C@H](NC(=O)CNC(=O)c1cc(O)cc(NC2=NCC(O)CN2)c1)c1cc(Cl)cc(Cl)c1 (stereo partly shown) ?
Found: middle segment

Lookup: Which IC50 band matches O=C(O)C[C@H](NC(=O)CNC(=O)c1cncc(NC2=NCC(O)CN2)c1)c1cc(Cl)cc(C(F)(F)F)c1 (stereo partly shown) ?
Found: lower segment

Lookup: Which IC50 band matches Cc1cc(Br)cc([C@H](CC(=O)O)NC(=O)CNC(=O)c2cc(O)cc(NC3=NCC(O)CN3)c2)c1 (stereo partly shown) ?
Found: lower segment

Lookup: Which IC50 band matches O=C(O)C[C@H](NC(=O)CNC(=O)c1cc(O)cc(NC2=NCC(O)CN2)c1)c1cc(Br)cc(Br)c1 (stereo partly shown) ?
Found: middle segment

Lookup: Which IC50 band matches O=C(O)CC(NC(=O)CNC(=O)c1cc(O)cc(NC2=NCC(O)CN2)c1)c1cc(Br)cc(Br)c1O (stereo not shown) [Example C7, reference compound] ?
Found: upper segment

Lookup: Which IC50 band matches Cc1cc(Cl)cc([C@@H](CC(=O)O)NC(=O)CNC(=O)c2cccc(NC3=NCCN3)c2)c1O [Example C11, reference compound] ?
Found: upper segment

Lookup: Which IC50 band matches O=C(O)C[C@H](NC(=O)CNC(=O)c1cc(O)cc(NC2=NCC(O)CN2)c1)c1cc(Cl)cc(OC(F)(F)F)c1 (stereo partly shown) ?
Found: middle segment

The values you see were collected from patent US10035778B2.
